# assay.system: EPHB2 (UniProt P29323)
# Sequence (P29323 whole entry, looked up): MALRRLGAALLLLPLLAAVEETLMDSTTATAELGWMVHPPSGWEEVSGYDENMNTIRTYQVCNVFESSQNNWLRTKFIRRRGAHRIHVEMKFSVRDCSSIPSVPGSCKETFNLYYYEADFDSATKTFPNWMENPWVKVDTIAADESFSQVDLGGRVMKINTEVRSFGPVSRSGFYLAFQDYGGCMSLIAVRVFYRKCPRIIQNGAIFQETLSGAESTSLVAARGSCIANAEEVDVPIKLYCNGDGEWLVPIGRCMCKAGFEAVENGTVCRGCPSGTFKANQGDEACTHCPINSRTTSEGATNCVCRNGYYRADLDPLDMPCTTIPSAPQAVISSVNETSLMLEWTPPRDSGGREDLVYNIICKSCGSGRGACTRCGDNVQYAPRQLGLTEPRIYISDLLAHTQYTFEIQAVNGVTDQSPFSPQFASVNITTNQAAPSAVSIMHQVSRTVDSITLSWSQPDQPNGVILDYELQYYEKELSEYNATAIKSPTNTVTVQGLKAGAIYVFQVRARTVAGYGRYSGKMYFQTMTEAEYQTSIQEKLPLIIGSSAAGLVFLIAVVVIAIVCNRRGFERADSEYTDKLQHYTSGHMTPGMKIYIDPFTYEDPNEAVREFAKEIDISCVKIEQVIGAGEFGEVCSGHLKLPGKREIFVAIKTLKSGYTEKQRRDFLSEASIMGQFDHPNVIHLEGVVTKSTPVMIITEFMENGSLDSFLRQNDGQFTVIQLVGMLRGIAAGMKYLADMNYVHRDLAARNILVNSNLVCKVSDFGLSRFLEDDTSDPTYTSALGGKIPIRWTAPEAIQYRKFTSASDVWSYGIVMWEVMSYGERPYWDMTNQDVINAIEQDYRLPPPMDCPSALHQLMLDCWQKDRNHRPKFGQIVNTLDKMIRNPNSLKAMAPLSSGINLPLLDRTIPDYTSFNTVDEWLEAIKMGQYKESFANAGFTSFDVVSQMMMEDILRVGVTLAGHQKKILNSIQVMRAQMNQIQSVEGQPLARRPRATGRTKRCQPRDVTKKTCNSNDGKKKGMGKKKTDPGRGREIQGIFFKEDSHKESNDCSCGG
# assay.procedure: phosphorylation enrichment, bacterial display (enrichment ratio); higher = better substrate or ligand; peptides without Tyr show the background;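 also: 11-residue human phosphosite peptides and single-mutation variants displayed on the E. coli surface, counted by deep sequencing, each peptide's frequency after selection divided by its frequency in the unselected input library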;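 also: frequency after pTyr selection over input frequency; kinase dosed for 20-30% of maximal phosphorylation in three min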
quantity: phosphorylation enrichment
Respond using a number only.

Past entries and their recorded results:
seq: PIPIKYKAMKK [MYD88_Y257_L252P]
observed: 0.495

seq: VGSIEYLKREW [KCNMA1_Y885]
observed: 0.487

seq: MGHVNYGAFIN [GLB1_Y485_R482H_YF]
observed: 0.615

In: Given the sequence GDDLSYGDVPP [IRS1_Y151_E147D] , what is its reported phosphorylation enrichment?
Out: 0.588

In: What do we get for KTNVSYCGALD [CACNB4_Y103] ?
Out: 0.508

In: What do we get for MPAVTYTLAMR [MEGF10_Y895_P897L] ?
Out: 0.588

Data provenance: the supplement of paper PMC10065799
